# TESTED SYSTEM: T1, 10E8-GT10.2 epitope scaffold (designed scaffold 10E8-GT10.2 with …, N-linked glycosylation sites added (positions not given))
# T1 chain: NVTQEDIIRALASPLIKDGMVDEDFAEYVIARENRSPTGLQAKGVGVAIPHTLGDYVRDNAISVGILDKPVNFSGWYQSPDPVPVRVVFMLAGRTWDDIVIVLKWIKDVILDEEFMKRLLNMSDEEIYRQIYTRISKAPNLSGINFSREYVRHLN
pKd: −log10 of the molar value.
QUANTITY KIND: pKd

1. MPER18_d21_45.2_v55_12 (antibody, V domains shown) VH: QVQLQESGPGLVTPSETLSLTCTVSGDSISSYYWNWIRQPPGKGLEWIEYMFYSGSTNYNPSLKSRVTISVDTSKNQFSLKLSSVTAADTAVYYCAREPPYYDFWSGLSMGVGAFDIWGQGTMVTVSS VL: DIVMTQSPLSLPVSLGDQASISCRSSQSIVHSNGYTYLDWYLQRPGQSPKLLIYKVSNRFSGVPDRFSGSGSGTDFTLKISRVEAEDLGVYYCFQGSHVPYTFGGGTKLEIK	9.18
2. NHP-10E8_MPER-GT10v55_W10-10 (antibody, V domains shown) VH: EVQVVESGGGLVQPGGSLRLSCAASGFTFSDYAMDWVRQAPGKGLEWVGFIRSKDYGGTAEYAASVKGRFTISRDDSKNTAYLQMSSLKTEDTAVYYCTRDRRYYSFWSGYDRGWYFDLWGQGALVTVSS VL: DIVMTQTPLSLPVTLGEPASISCRSSQSLLNSEDGNTSLAWYLQKPGQSPQLLIYEVSNRASGVPDRFSGSGSDTDFTLKISRVEAEDVGVYYCMQPLEFPPTFGQGTKVEIK	7.02
3. NHP-10E8_MPER-GT10v55_W21-16 (antibody, V domains shown) VH: QVQLQESGPGLVKPSETLSLTCAVSGGSISSGYYYWSWIRQPPGKGLEWIGYITYSGSTSYNPSLKSRVTISRDTSKNQFSLKLSSVTAADTAVYYCARVGVYYNFWSGYYTNTYFDYWGQGVLVTVSS VL: QAAPTQPPSVSGSPGQSVTISCTGTSSDIGYYNAVSWYQQHPGKAPKLMIYEVSKRPSGVSDRFSGSKSGNTASLTISGLQAEDEADYYCSSYAGSNTFIFGAGTRLTV	5.62

From: paper PMC11147780
